Here, each record is paired with measured inhibition at 1 µM data.
# Target system: protein farnesyltransferase (Rattus norvegicus, UniProt Q02293+Q04631)
# Construct: The enzyme is purified according to Reiss, Y., et al., Cell, 62: 81-88 (1990), utilizing steps one through three; from tissue; host or cells: rat brain
# Test name: Inhibition of farnesyltransferase (scintillation proximity assay, rat brain enzyme, biotin-K Ras B fragment substrate)
# Format: biochemical
# Details: read-out: % inhibition of farnesyltransferase at 1 × 10^-6 M; 1 × 10^-6 M (Table 2)
Structures can show the parent of a compound that is named as a salt.
Please reply with the bare figure in % and do not write the unit itself.

// known answers, use as guide
CSCC[C@H](NC(=O)c1ccc(CN(C(C)C)C2(Cc3ccccc3)CC2)cc1-c1ccccc1C)C(=O)O [Example 325] : 99
CSCC[C@H](NC(=O)c1ccc(/C=C/CC(O)c2ccc3ccccc3c2)cc1-c1ccccc1C)C(=O)O (stereo partly shown) [Example 474] : 92
CSCC[C@H](NC(=O)c1ccc(/C=C/c2cnccn2)cc1-c1ccccc1C)C(=O)O [Example 495, lithium salt] : 95

Now look at this entry.
Can you share its inhibition at 1 µM? I mean this molecule: Cc1ccccc1-c1cc(CN(C2CC2)C(C)(C)CC2CCCCC2)ccc1C(=O)N[C@@H](CCS(C)(=O)=O)C(=O)O [Example 320]
93
